system: HS 578T breast; test: NCI-60 one-dose screen, 48 h (100 = growth as untreated, 0 = no growth, -100 = all killed); conditions: 10 µM unless noted
About 83,000 compounds went through this panel and 20% of them were active in at least one assay; those are over-represented in the sample as a whole.
Provide the reported growth of each item.
One number for each entry, in %.

{"compound": "CCCCOc1ccc(C(N)Cc2ccccc2)cc1 (centres undefined)", "assay-system": "HS 578T breast", "attribute-measured": "growth", "experimental-value": 91}

Please give growth, item by item, for the list that follows.
1. CCCCN1CCCC[C@@H]1C(=O)N[C@H](C(=O)N(C)[C@H](C[C@@H](OC(C)=O)c1nc(C(=O)NC2CCC(C(=O)OC)CC2)cs1)C(C)C)C(C)C (some centres undefined)
2. Nc1c(F)cc(-c2nc3cc(F)ccc3[se]2)cc1Br

A:
[14.5, 96.6]

Q: Any idea what growth was measured for `COC(=O)[C@@H](C)C[C@H](Cc1ccccc1)NC(=O)c1csc([C@@H](C[C@H](C(C)C)N(C)C(=O)[C@@H](NC(=O)[C@H]2CCCCN2C)C(C(F)(F)F)C(F)(F)F)OC(C)=O)n1` ?
A: 17.6
